Tested on: Mus musculus
Assay name: Toxicity in mouse allografted with mouse P388 cells assessed as change in body weight at 25 mg/kg administered daily as single dose
Assay type: organism-based
Parameters: dose 25 mg/kg
Reported conditions: in vivo
Property: Activity; scope: individual compounds
// units = g; emit number, no label

// below: answered compounds
compound="[Cl-].c1cc2c3c(c1)c1cc4c(cc1c[n+]3CC2)OCO4 [ANHYDROLYCORINIUM CHLORIDE]" system="Mus musculus" measured_attribute=Activity reported=-2.9
compound=COc1cc2c[n+]3c4c(cccc4c2cc1OC)CC3.[Cl-] system="Mus musculus" measured_attribute=Activity reported=-0.9

Note: attention shifts to another entry.
The compound `[O-]c1cc2c3c(c1)c1cc4c(cc1c[n+]3CC2)OCO4` , when measured on Mus musculus, yielded Activity of -2.1
